These entries and their values trace back to ChEMBL document CHEMBL4145564.

experiment-notes: Half life in athymic nude mouse blood
Assay type: ADME, organism-based
endpoint: half-life (min)

[[record]]
molecule = "CC1(C)CCC2=C(O1)c1ccccc1C(=O)C2=O"
readout_unit = "min"
measured_value = 24


----------
target-under-test: NAD(P)H dehydrogenase [quinone] 1 (Homo sapiens)
experiment-notes: Inhibition of recombinant human NQO1 in presence of NADPH measured at 2 sec intervals for 5 mins
pIC50: −log10 of the molar value.
endpoint: pIC50

[[record]]
molecule = "S=C(Cc1ccc2c3c([nH]c2c1)CCCC3)N1CCOCC1"
endpoint = "pIC50"
measured_value = 5.83

[[record]]
molecule = "CN1C(=O)C(O)(CC(=O)c2cc3c4c(cccc4c2)CC3)c2ccccc21 (configuration not stated)"
endpoint = "pIC50"
measured_value = 5.69


----------
target-under-test: NAD(P)H dehydrogenase [quinone] 1 (Rattus norvegicus)
Sequence (P05982 whole entry): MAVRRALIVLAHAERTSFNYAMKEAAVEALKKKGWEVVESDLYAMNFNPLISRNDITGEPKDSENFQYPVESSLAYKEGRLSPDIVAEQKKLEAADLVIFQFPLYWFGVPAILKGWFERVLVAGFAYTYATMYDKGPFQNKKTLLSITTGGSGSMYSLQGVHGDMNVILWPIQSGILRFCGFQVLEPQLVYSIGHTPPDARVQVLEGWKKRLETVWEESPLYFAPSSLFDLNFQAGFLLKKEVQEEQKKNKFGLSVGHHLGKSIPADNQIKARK
endpoint: Ki

[[record]]
molecule = "O=c1oc2ccccc2c(O)c1Cc1c(O)c2ccccc2oc1=O [DICUMAROL]"
target_under_test = "NAD(P)H dehydrogenase [quinone] 1 (Rattus norvegicus)"
measured_value = "1 to 10 nM"


----------
target-under-test: UniProt P15559
experiment-notes: Inhibition of recombinant human NQO1 expressed in Escherichia coli using DCPIP as substrate assessed as rate of reduction of DCPIP in presence of NADH after 5 mins by spectrophotometric analysis
endpoint: Ki (nM)

[[record]]
molecule = "COC1=CC(=O)c2c(c(COc3ccc([N+](=O)[O-])cc3)c(C)n2C)C1=O"
measured_value = 450

